Molecular target: human follicle stimulating hormone (hFSH) (Homo sapiens, UniProt P01215;P01225 P01215:25-116,P01225:19-129)
Sequence (P01215 25-116, chain 1 of 2): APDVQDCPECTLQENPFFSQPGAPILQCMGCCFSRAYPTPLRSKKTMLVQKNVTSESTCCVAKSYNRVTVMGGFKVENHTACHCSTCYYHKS
Sequence (P01225 19-129, chain 2 of 2): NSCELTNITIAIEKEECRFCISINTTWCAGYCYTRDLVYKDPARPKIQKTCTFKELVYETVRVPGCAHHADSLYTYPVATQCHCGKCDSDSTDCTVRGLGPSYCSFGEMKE
Assay: filter; Mg, pH 6.5
Conditions: tags: Becton Dickinson; chain copies: alpha/beta heterodimer (inferred); label: 32P; G4 (RNase T1 protection in K+)
READOUT TYPE: Kd

IN: Which Kd is reported for this binder? H-30 (ssRNA, 2'-NH2 all pyrimidines) RNA: GGGAGGACGAUGCGGUACUGUAAAACAAUCUGGAGGAGGGUCUAGGGGAUGGUGGCAGACGACUCGCCCGA
OUT: ~1700 nM
